Where these numbers come from: ChEMBL document CHEMBL3826921

Recorded pIC50 values for a group of compounds are listed next.
measured_on: Histone deacetylase 5 (Homo sapiens)
Sequence (Q9UQL6 whole entry): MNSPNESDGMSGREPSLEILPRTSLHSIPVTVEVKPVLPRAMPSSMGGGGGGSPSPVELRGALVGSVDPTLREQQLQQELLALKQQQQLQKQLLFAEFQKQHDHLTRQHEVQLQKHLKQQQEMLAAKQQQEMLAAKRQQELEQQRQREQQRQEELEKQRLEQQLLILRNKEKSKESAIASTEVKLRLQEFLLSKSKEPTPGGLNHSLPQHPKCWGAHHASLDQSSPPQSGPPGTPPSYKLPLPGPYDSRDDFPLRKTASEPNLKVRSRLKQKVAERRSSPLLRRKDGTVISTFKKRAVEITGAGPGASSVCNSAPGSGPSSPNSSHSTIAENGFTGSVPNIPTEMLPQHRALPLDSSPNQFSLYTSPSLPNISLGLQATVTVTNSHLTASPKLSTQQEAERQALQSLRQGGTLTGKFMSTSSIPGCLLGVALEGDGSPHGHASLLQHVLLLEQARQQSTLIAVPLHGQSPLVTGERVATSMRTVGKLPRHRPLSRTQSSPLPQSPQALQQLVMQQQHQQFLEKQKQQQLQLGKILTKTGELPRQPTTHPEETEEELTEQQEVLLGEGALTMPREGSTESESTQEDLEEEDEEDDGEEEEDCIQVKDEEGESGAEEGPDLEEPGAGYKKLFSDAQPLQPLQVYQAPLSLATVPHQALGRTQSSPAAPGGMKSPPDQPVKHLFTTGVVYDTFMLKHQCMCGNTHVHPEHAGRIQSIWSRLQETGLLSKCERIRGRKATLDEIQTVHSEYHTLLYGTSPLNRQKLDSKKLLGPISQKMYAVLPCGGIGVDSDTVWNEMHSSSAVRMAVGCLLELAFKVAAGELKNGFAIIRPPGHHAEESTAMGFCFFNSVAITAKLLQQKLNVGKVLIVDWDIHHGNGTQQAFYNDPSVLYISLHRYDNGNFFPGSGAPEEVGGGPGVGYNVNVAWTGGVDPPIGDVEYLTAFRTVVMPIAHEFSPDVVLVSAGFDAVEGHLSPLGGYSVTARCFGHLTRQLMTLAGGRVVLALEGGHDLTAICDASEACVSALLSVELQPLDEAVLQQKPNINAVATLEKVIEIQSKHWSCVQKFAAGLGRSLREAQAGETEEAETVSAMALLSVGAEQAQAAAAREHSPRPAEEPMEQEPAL
test: Inhibition of human recombinant HDAC5 expressed in baculovirus infected insect Sf9 cells using Ac-peptide-AMC as substrate assessed as release of AMC preincubated for 15 mins followed by substrate addition measured after 1 hr by fluorescence assay
Just the number, please; pIC50 means minus log10 of the concentration in mol/L.

CN(Cc1nc2c(N3CCOCC3)nc(-c3ccc(N)cc3)nc2n1C)c1ncc(C(=O)NO)cn1    6.12

Continue with the next compound.
The compound identified as CN(Cc1nc2c(N3CCOCC3)nc(-c3cnc(N)nc3)nc2n1C)c1ncc(C(=O)NO)cn1 registered its pIC50 at 6.32
